# log10 of IC50 per entry
molecular target: Opioid receptor (Rattus norvegicus, UniProt P33533+P34975+P33535); assay: 50% Inhibition of stereospecific [3H]-naltrexone (10e-9 M) binding towards opiate receptor in rat brain homogenate; format: tissue-based
value-kind: log10 of IC50 (log10 of the value in nM)

| compound | test-result |
| --- | --- |
| CN1CC[C@]23CCCC[C@H]2[C@H]1Cc1ccc(O)cc13 [LEVORPHANOL] | -2.40 |
| CC(=O)c1ccc2c(c1)[C@@]13CCCC[C@H]1[C@@H](C2)N(CC1CC1)CC3.Cl | 1.85 |
| CC(O)c1ccc2c(c1)[C@@]13CCCC[C@H]1[C@@H](C2)N(C)CC3.Cl (stereo not given in full) | 1.15 |
| CC(=O)c1ccc2c(c1)[C@@]13CCCC[C@H]1[C@@H](C2)N(C)CC3 | 2.32 |
| CC(=O)c1ccc2c(c1)C[C@@H]1[C@@H]3CCCC[C@]23CCN1C | 4.11 |

Measured values drawn from ChEMBL document CHEMBL1123025 for this set.
